Answer each item with its documented logD.
- Assay name: Lipophilicity, log D of the compound at pH 7.4 by LC-MS based shake flask method
- Assay type: physicochemical
- Conditions used: buffer
Numbers only.

>  <Smiles structure>
CN1CC[C@@](O)(C#Cc2ccnc(-n3nc(C(N)=O)cc3N)c2)C1=O

>  <Observed>
2

$$$$
>  <Smiles structure>
CN1CC[C@@](O)(C#Cc2cccc(-c3ccnc(C(N)=O)n3)c2)C1=O

>  <Observed>
1.6

$$$$
>  <Smiles structure>
COc1cnc2c(c1)c(C(N)=O)nn2-c1cccc(C#C[C@]2(O)CCN(C)C2=O)c1

>  <Observed>
1.9

$$$$
>  <Smiles structure>
COc1cc(C(N)=O)nc(-c2cccc(C#C[C@]3(O)CCN(C)C3=O)c2)n1

>  <Observed>
1.8

$$$$
>  <Smiles structure>
COc1cc(C(N)=O)nc(-c2cccc(C#C[C@]3(O)CCN(C)C3=O)c2)c1

>  <Observed>
1.9

$$$$
>  <Smiles structure>
CN1CC[C@@](O)(C#Cc2cccc(-n3nc(C(N)=O)c4cc(F)ccc43)c2)C1=O

>  <Observed>
2.6

$$$$

Batch request: logD for each of the following molecules.
1. CN1CC[C@@](O)(C#Cc2cccc(-c3cccc(C(N)=O)n3)c2)C1=O
2. CN1CC[C@@](O)(C#Cc2ccnc(-n3ccc(C(N)=O)n3)c2)C1=O
3. CCOc1ccn2c(-c3cccc(C#C[C@]4(O)CCN(C)C4=O)c3)nc(C(N)=O)c2c1
4. CN1CC[C@@](O)(C#Cc2cccc(-c3cccc(C(N)=O)c3)c2)C1=O

Return:
1.6
0.61
1.9
1.6
